tested on: Balamuthia mandrillaris (ATCC PRA-291) trophozoites, axenic culture; experiment: primary screen, percent inhibition; higher = more effect of the substance; settings: 20 µM;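 also: 0% = vehicle wells and 100% = lysate wells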
The campaign covered roughly 2,000 compounds. About 15 (0.8%) showed an effect of 50% or more. The sample as a whole holds a higher share of strong results than the screen did.
Use % Inhibition to assign classes; range list: low (below 10%), mid (10% to below 20%), high (20% or more)

compound=O=C(O)c1ccccc1-c1c2cc(I)c(=O)c(I)c-2oc2c(I)c(O)c(I)cc12 tgt="Balamuthia mandrillaris (ATCC PRA-291) trophozoites, axenic culture" class_name=high
compound=Cc1nnc(SCC2=C(C(=O)O)N3C(=O)[C@@H](NC(=O)Cn4cnnn4)[C@H]3SC2)s1 tgt="Balamuthia mandrillaris (ATCC PRA-291) trophozoites, axenic culture" class_name=mid
compound=C=CC[C@]1(O)CC[C@H]2[C@@H]3CCC4=CCCC[C@@H]4[C@H]3CC[C@@]21C tgt="Balamuthia mandrillaris (ATCC PRA-291) trophozoites, axenic culture" class_name=low
compound="CN(C)C(=O)Oc1cc(OC(=O)N(C)C)cc(C(O)CNC(C)(C)C)c1 (stereo not shown) [255708-L4]" tgt="Balamuthia mandrillaris (ATCC PRA-291) trophozoites, axenic culture" class_name=mid
compound=CC(=O)Oc1cc(C(C)C)c(OCCN(C)C)cc1C tgt="Balamuthia mandrillaris (ATCC PRA-291) trophozoites, axenic culture" class_name=high
compound=O=C(O)CCCc1ccc(N(CCCl)CCCl)cc1 tgt="Balamuthia mandrillaris (ATCC PRA-291) trophozoites, axenic culture" class_name=low
compound="O=C(O)C1=C(CSc2nnnn2CS(=O)(=O)O)CS[C@@H]2C(NC(=O)[C@H](O)c3ccccc3)C(=O)N12 (stereo partly shown)" tgt="Balamuthia mandrillaris (ATCC PRA-291) trophozoites, axenic culture" class_name=mid
compound="O=C(O)CCCCC1CCSS1 (stereo not shown)" tgt="Balamuthia mandrillaris (ATCC PRA-291) trophozoites, axenic culture" class_name=high
compound="CCN(CC)C(=O)C1CN2CCc3cc(OC)c(OC)cc3C2CC1OC(C)=O (stereo not shown)" tgt="Balamuthia mandrillaris (ATCC PRA-291) trophozoites, axenic culture" class_name=mid
